test system: Calf thymus DNA; assay: Binding affinity to calf thymus DNA assessed as change in melting temperature; format: nucleic-acid assay; settings: Bos taurus

smiles.text | ΔTm
COc1cccc2c1C(=O)c1c(O)c3c(c(O)c1C2=O)C[C@@](O)(C(=O)C(C)C)C[C@@H]3O[C@H]1C[C@H](N)[C@H](O)[C@H](C)O1 | 10.3 °C
CCC(=O)[C@]1(O)Cc2c(O)c3c(c(O)c2[C@@H](O[C@H]2C[C@H](N)[C@H](O)[C@H](C)O2)C1)C(=O)c1c(OC)cccc1C3=O | 11 °C
COc1cccc2c1C(=O)c1c(O)c3c(c(O)c1C2=O)C[C@@](O)(C=O)C[C@@H]3O[C@H]1C[C@H](N)[C@H](O)[C@H](C)O1 | 6.5 °C
COc1cccc2c1C(=O)c1c(O)c3c(c(O)c1C2=O)C[C@@](O)(C(=O)CCc1ccccc1)C[C@@H]3O[C@H]1C[C@H](N)[C@H](O)[C@H](C)O1 | 8.6 °C

FYI, the data here is from ChEMBL document CHEMBL3227939.
